Where do the numbers come from? From patent US12286437B2.

Target: CYP2C8 (Homo sapiens)
Construct: Pooled human microsomes and selective CYP probe substrates were used; from tissue; host or cells: pooled human liver microsomes
Sequence (P10632 1-490): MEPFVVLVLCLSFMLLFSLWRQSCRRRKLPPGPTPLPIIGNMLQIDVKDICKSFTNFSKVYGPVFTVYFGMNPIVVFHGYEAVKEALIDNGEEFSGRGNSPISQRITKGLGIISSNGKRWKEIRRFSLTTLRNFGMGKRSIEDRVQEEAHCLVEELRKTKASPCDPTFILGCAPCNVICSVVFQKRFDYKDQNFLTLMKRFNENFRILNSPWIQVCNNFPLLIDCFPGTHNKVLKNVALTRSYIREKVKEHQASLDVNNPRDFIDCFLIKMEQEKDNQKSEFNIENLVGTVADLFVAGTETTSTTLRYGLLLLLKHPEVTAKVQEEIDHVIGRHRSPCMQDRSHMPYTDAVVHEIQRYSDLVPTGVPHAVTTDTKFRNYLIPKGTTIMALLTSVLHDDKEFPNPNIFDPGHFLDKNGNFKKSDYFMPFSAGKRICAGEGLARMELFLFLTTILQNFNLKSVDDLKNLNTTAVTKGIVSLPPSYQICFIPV
Experiment: Time-dependent inhibition of CYP2C8 in human liver microsomes
Format: in vitro ADME
Details: pooled human liver microsomes; CYP2C8, 25 μM, human liver microsomes, after 30 minutes incubation; read-out: % Activity NADPH T30
Give activity at 30 min, 25 µM for every item shown.
One number for each entry, in %.

Use these answered entries as a reference point.
compound: C[C@H]1CC[C@H](N2CC(=O)N(Cc3ccc(Cl)cc3)C3(CN(C(N)=O)C3)C2=O)CC1 [Compound 18]
measured parameter: activity at 30 min, 25 µM
readout number: 100
//
compound: CC(C)N1CC(=O)N(Cc2ccc(Cl)c(F)c2)C2(CN(c3cccnn3)C2)C1=O [Compound 8]
measured parameter: activity at 30 min, 25 µM
readout number: 117
//
compound: Cc1cc(CN2C(=O)CN([C@H]3CC[C@H](C)CC3)C(=O)C23CN(C(N)=O)C3)ccc1F [Compound 6]
measured parameter: activity at 30 min, 25 µM
readout number: 88

Dear reader, for each entry below, please note its activity at 30 min, 25 µM.
1. C[C@H]1CC[C@H](N2CC(=O)N(Cc3ccc(F)c(Cl)c3)C3(CN(C(N)=O)C3)C2=O)CC1 [Compound 7]
2. CC(C)N1CC(=O)N(Cc2ccc(C(F)(F)F)cc2)C2(CN(c3cccnn3)C2)C1=O [Compound 13]
3. C[C@H]1CC[C@H](N2CC(=O)N(Cc3ccc(F)c(F)c3)C3(CN(C(N)=O)C3)C2=O)CC1 [Compound 5]

[64, 98, 88]
